test system: RARg:RXRa (NR concentration 270 nM, RXRa partner concentration 90 nM); experiment: PBM binding z-score (relative to random genomic background probes); higher = stronger binding; sequences stand for … in GC…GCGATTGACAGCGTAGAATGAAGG
A collection of sequences and their measured PBM binding z-score

Examples from the recorded data:
Sequence Record	Parameter Measured	Result
GCATATAGGTAATACAAGGTGCAAGTCCGATTGT	PBM binding z-score	0.291
TATCCTAGGTCATGGGCCAGTATACCACGCGAAC	PBM binding z-score	4.47
TCTCGGAAGACACGAAGGTCAGAGCTTTCCAGAG	PBM binding z-score	1.39

Req: Which PBM binding z-score is reported for this sequence? CCTTACGGGTCACTGACAGGTTTTAGCATTTGGA
Resp: 4.89

Req: Which PBM binding z-score is reported for this sequence? CGTCCAAGGTCAATGCTAGGTCAGTGGAAGCATT
Resp: 7.51

Req: Which PBM binding z-score is reported for this sequence? CCTATTAGTTGACCATAAGGGAAACCGAAGCTCG
Resp: 0.264

Req: Which PBM binding z-score is reported for this sequence? AATACAGGGTCATCGTAGGCCAGAGCACGCACAG
Resp: 5.92

Req: Which PBM binding z-score is reported for this sequence? ATATGTAGGTTACATCCGGGTCATTTAGGCTATG
Resp: 3.59

Req: Which PBM binding z-score is reported for this sequence? GCTGGTAGGTCAACTGATGGTCAGCTAAAGCTCG
Resp: 5.73

Req: Which PBM binding z-score is reported for this sequence? CAAACTAGGTCAAGGTCAACGTCGGTTTGTGCCA
Resp: 6.16

----------
A collection of sequences and their measured PBM binding z-score
system: PXR:RXRa (NR concentration 270 nM, RXRa partner concentration 90 nM); assay: PBM binding z-score (relative to random genomic background probes); higher = stronger binding; sequences stand for … in GC…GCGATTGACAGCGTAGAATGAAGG
Lab note: write the figure by itself, no unit.

Examples from the recorded data:
Sequence Record	PBM binding z-score
ATATGTAGGTTACATCCGGGTCATTCACGCTATG	4.01
CCAAGTAGGTTATGGGGCATTCAGGCAACGGTGA	-0.156
ACTTACGGGTCAACGAGGTTATACCACGCGTATA	5.43

Req: Which PBM binding z-score is reported for this sequence? CCTTACGGGTCACAGACAGGTTATAGCATTTGGA
Resp: 3.87

Req: Which PBM binding z-score is reported for this sequence? CCTAATAGTTGACCATAAGGGCAACCGAAGCTCG
Resp: 0.821

Req: Which PBM binding z-score is reported for this sequence? TCATATGGGTAAACAGGTGAAAGTCCGTAAGTTA
Resp: 0.505

Req: Which PBM binding z-score is reported for this sequence? CCGACAGGGGCAGAAAGGTTACCATACCATCCGG
Resp: 1.25

Req: Which PBM binding z-score is reported for this sequence? TCTATTAGTTGATTAGGGCAACCGTAACAGCGGA
Resp: 0.413

Req: Which PBM binding z-score is reported for this sequence? CCTCGGAGGACATCAGGAGGTCAGAGCTGCCAGA
Resp: 2.19

Req: Which PBM binding z-score is reported for this sequence? CCGACTGGGGCAAGGTTTCCATAACGCACAGCCA
Resp: -0.725

Req: Which PBM binding z-score is reported for this sequence? TCTTGTAGATCAATAGGAGGTTAAGAAAGATCGA
Resp: 0.712

Req: Which PBM binding z-score is reported for this sequence? TCTTGTAGATCAATAGAGGCTAAGAAAGTGCGCT
Resp: 0.573

Req: Which PBM binding z-score is reported for this sequence? CAAACTGGGTCACAGAGGTCAAAGTCCGTGCGTA
Resp: 6.74

Req: Which PBM binding z-score is reported for this sequence? TTGCCTAGGTCATGCGGGCCAGTATAGTGTCGGC
Resp: 1.39

Req: Which PBM binding z-score is reported for this sequence? CGTCCAAGGTCAATGCTAAGTCAGTGAAAGCATT
Resp: 3.51

Req: Which PBM binding z-score is reported for this sequence? CGTCCAAGGTCATAGGAGGTCAGTCAAGACAGAT
Resp: 6.74

Req: Which PBM binding z-score is reported for this sequence? TCGAGTAGGTTACCAATGGGGCATTCGGCTTTCT
Resp: -0.187

Req: Which PBM binding z-score is reported for this sequence? ACTTACGGGTCAAAGAGGTTATAGCACGCGTATA
Resp: 4.91

Req: Which PBM binding z-score is reported for this sequence? CCTCGGAGGACAGAAGGTCAGCGCTGTCCGCTTT
Resp: 1.96

Req: Which PBM binding z-score is reported for this sequence? CCTTACGCGTCACTCCAGGTTATAGCATCGGAGT
Resp: 0.484

Req: Which PBM binding z-score is reported for this sequence? ATCGAAAGGTCGACGAGGTGAGTAGACACCGTTT
Resp: 2.93

Req: Which PBM binding z-score is reported for this sequence? TGTCAAAGTTCAAAGGTAACGTATGTATCCACAC
Resp: 5.65

Req: Which PBM binding z-score is reported for this sequence? CCTTACGGGTCAAGGTTATGGCACGGGTGGTACG
Resp: 3.27

Req: Which PBM binding z-score is reported for this sequence? ATATGTAGGTTGCATCCGGGTCATTCAGGCTATG
Resp: 2.76

Req: Which PBM binding z-score is reported for this sequence? GCTATTCGTTGAAAGGGCAACCGAATGATTCTCG
Resp: 0.591

Req: Which PBM binding z-score is reported for this sequence? CCTTACGGGTCACTGACTGGTTATAGCATTTGGA
Resp: 3.1

----------
tested on: PPARg:RXRa 270nM:90nM, anti-RXR (NR concentration 270 nM, RXRa partner concentration 90 nM); assay: PBM binding z-score (relative to random genomic background probes); higher = stronger binding; sequences stand for … in GC…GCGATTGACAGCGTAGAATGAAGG
A collection of sequences and their measured PBM binding z-score
Lab note: write the figure by itself, no unit.

Examples from the recorded data:
Sequence Record	Result Number
GCATATAGGTAATACATGGTGAAAGTCCGATTGT	0.694
GCTAGCAAGCCATTTGGGTCACTCAATGACGGGC	0.042
CCGTGTAGGTTATGGGGCATTCAGGCAACGGTGA	3.57
CCTAGTTGGTCAGGAGGTCTCACACCGGATATGA	0.772
TCTGCTAGGTCAGTTAGTCAGCTAACGAGCTGCC	1.33
CCAGACAGGTGAGAAGGTTACTCAGCCTCGATTA	0.872

Turning to the following sequence.
Req: Which PBM binding z-score is reported for this sequence? AGAATGAGCTTACCAAAGATCAGGGAAACGCTTG
Resp: 0.206

----------
A collection of sequences and their measured PBM binding z-score
test system: RXRa homodimer (NR concentration 180 nM); experiment: PBM binding z-score (relative to random genomic background probes); higher = stronger binding; sequences stand for … in GC…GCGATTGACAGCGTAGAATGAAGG

Examples from the recorded data:
Sequence Record	PBM binding z-score
TCGAGTAGGTTACCAATGGCGCATTCAGCTTTCT	0.351
TCATATAGGTCATACAGGTGAAAGTCGGCATCTA	5.27
GCTGCTAGGTCAGGTTGGTCAGTTAACGGGTACG	1.02
CGTCCAAGGTCAGCAGGTCAGTGCAAGCGACGTG	4.74
ATCTCTAGGTACAAGTTCAGTGAATCCCGAGGAT	0.729
CAGCCTAGGTCAGGGCTAGTATAGGAGGAACGTT	1.49
ACGGACAGGTGATGAAGGTAACTCAGGCTATCAT	0.31
AGAATGAGGTTAAGATCAGGAAAACAGAATACAT	2.65

Req: Which PBM binding z-score is reported for this sequence? ATATGTTGGTTACATCCGGGTCATTCAGGCTATG
Resp: 2.18

Req: Which PBM binding z-score is reported for this sequence? CAAACTAGGTCAAAGGTCAATGTCGAGCCAACCA
Resp: 9.99

Req: Which PBM binding z-score is reported for this sequence? CCAGCTAGGTCAATGGTCAGCTAAAGCAGCTCGC
Resp: 2.04

Req: Which PBM binding z-score is reported for this sequence? GCTGCTAGGTCAGGCTGGTCAGCTAACGGGTACG
Resp: 1.07

----------
system: THRa:RXRa (NR concentration 90 nM, RXRa partner concentration 90 nM); assay: PBM binding z-score (relative to random genomic background probes); higher = stronger binding; sequences stand for … in GC…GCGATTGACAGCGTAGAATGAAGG
Grouping rule (PBM binding z-score): low (below 1), middle (1 to below 3), high (3 or more)

Worked cases, answers included:
Sequence Record	Class Label
TCGAGTAGGTTAGGCGCATTCAGAATGGCGTCGA	low
ACCTCTAGGTAAAAGTTCAGTGAATCCCGAGGAT	low
GCTATTAGTTGAAAAGGCAACCGAATGATTCTCG	low
TCTATTAGTTGATTCGGGCAACCGAAACAGCGGA	low
CCTAGCTGGTCAAGGTCACACACGCTATAGGTAC	high
TCTTGTAGATCAAGCAAGTTAAGAAAGCCTGAGT	low
TCTTGTAGATCAATATAGGTTAAGAAAGTGCGCT	middle
AGTCAAAGTACAGGACGAGGTAACGTAAAGCACG	middle
AGTCAAAGTTAAGGACGAGGTAACGTAAAGCACG	high
CCTCGGAAGACAACAGGAGGTCAGAGCTGCCAGA	middle

Attention now turns to another entry.
Req: Form field 'band' for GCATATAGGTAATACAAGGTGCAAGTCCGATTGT
Resp: middle

Data provenance: the supplement of paper PMC6555819
